test: physchem; settings: pH 2.2, aqueous buffer, kinetic from dmso stock, Solubility (pH 2.2)
assay.endpoint: solubility at 24 h (µg/mL)

{"molecule": "Cc1c(COc2ccccc2-c2cccc(N3CC[C@@]4(C(=O)O)C[C@H]4C3)n2)ccc2c1CCN([C@H]1CCCOC1)C2 [Compound 11]", "reported.measurement": 140}
{"molecule": "COC[C@H]1N(c2cccc(-c3cccc(C)c3OCc3ccc4c(c3F)CCN(C3CCOCC3)CC4)n2)C[C@@H]2C[C@@]21C(=O)O [Compound 262]", "reported.measurement": 133}
{"molecule": "Cc1ccc(OCc2cc(C)c3c(c2)CCN(C2CCOCC2)C3)c(-c2csc(N3CC[C@H](C(=O)O)[C@H](C)C3)n2)c1 [Compound 236]", "reported.measurement": 141}

---

solubility at 24 h values, listed per item
assay: physchem; settings: pH 2.2, aqueous buffer, kinetic from dmso stock, Solubility (pH 2.2)
assay.endpoint: solubility at 24 h (µg/mL)

{"compound": "Cc1ccc(OCc2ccc3c(c2C)CCN(C2CCOCC2)C3)c(-c2cccc(N3CC[C@@]4(C(=O)O)C[C@H]4C3)n2)c1", "reported.measurement": 130}
{"compound": "Cc1ccc(OCc2ccc3c(c2)CCN(C2CCCOC2)C3)c(-c2csc(N3CC[C@@]4(C(=O)O)C[C@H]4C3)n2)c1 (stereo partly shown)", "reported.measurement": 130}
{"compound": "CO[C@H]1CN(c2nc(-c3cccc(Cl)c3OCc3ccc4c(c3)[C@H](C)CN(C3CCOCC3)CC4)cs2)CC[C@H]1C(=O)O", "reported.measurement": 115}
{"compound": "COCc1cc(COc2c(C)cccc2-c2cccc(N3CC[C@H](C(=O)O)[C@H](OC)C3)n2)cc2c1CN(C1CCOC1)CC2 (stereo partly shown)", "reported.measurement": 129}
{"compound": "COC[C@H]1N(c2cccc(-c3cccc(C)c3OCc3ccc4c(c3)CCN(C3CCOC3)C4)n2)C[C@@H]2C[C@@]21C(=O)O (mixture of isomers)", "reported.measurement": 140}
{"compound": "Cc1cccc(-c2cccc(N3CC[C@H](C(=O)O)[C@@H]4OCCC[C@H]43)n2)c1OCc1ccc2c(c1C)CCN(C1COC1)CC2", "reported.measurement": 69.9}
{"compound": "Cc1ccc(OCc2ccc3c(c2)CCCN(C2CCOCC2)C3)c(-c2csc(N3CC[C@@]4(C(=O)O)C[C@H]4C3)n2)c1", "reported.measurement": 134}
{"compound": "Cc1ccc(OCc2ccc3c(c2C)CCN(C2CCOCC2)C3)c(-c2csc(N3C[C@@H]4C[C@]4(C(=O)O)[C@H]3C)n2)c1", "reported.measurement": 110}
{"compound": "Cc1cccc(-c2csc(N3CC[C@@]4(C(=O)O)C[C@H]4C3)n2)c1OCc1ccc2c(c1C)CCN(C1CCOC1)CC2 (stereo partly shown)", "reported.measurement": 130}
{"compound": "CO[C@@H]1CN(c2cccc(-c3cccc(C)c3OCc3ccc4c(c3C)CCN(C)CC4)n2)CC[C@@H]1C(=O)O", "reported.measurement": 116}
{"compound": "CCc1cc(COc2c(C)cccc2-c2cccc(N3C[C@@H]4C[C@]4(C(=O)O)[C@H]3COC)n2)cc2c1CN(CC1COCCO1)CC2 (stereo partly shown)", "reported.measurement": 140}
{"compound": "Cc1c(COc2ccccc2-c2cccc(N3CC[C@@]4(C(=O)O)C[C@H]4C3)n2)ccc2c1CCN(C[C@H]1COCCO1)C2", "reported.measurement": 130}
{"compound": "CO[C@@H]1CN(c2cccc(-c3cccc(C)c3OCc3ccc4c(c3C)CCN(C3CCOCC3)CC4)n2)CC[C@H]1C(=O)O", "reported.measurement": 134}

---

experiment: physchem; details: pH 2.2, aqueous buffer, kinetic from dmso stock, Solubility (pH 2.2)

{"compound": "CO[C@@H]1CN(c2nc(-c3cccc(C)c3OCc3ccc4c(c3C)CCN(C3COC3)C4)cs2)CC[C@@H]1C(=O)O [Compound 174]", "unit.abbrev": "µg/mL", "solubility at 24 h": 120}
{"compound": "COC[C@H]1N(c2nc(-c3cccc(C)c3OCc3cc(C)c4c(c3)CCN(C3COC3)C4)cs2)C[C@@H]2C[C@@]21C(=O)O [Compound 161]", "unit.abbrev": "µg/mL", "solubility at 24 h": 110}
{"compound": "COC[C@@H]1N(c2cccc(-c3cccc(C)c3OCc3cc(C)c4c(c3)CCN(C3CCOCC3)C4)n2)C[C@H]2C[C@]21C(=O)O [Compound 63]", "unit.abbrev": "µg/mL", "solubility at 24 h": 130}
{"compound": "COC[C@H]1N(c2cccc(-c3cccc(C)c3OCc3cc(C)c4c(c3)CN(C3CCOCC3)C4)n2)C[C@@H]2C[C@@]21C(=O)O [Compound 222]", "unit.abbrev": "µg/mL", "solubility at 24 h": 132}
{"compound": "Cc1cc(COc2c(C)cccc2-c2csc(N3CC[C@@]4(C(=O)O)C[C@H]4C3)n2)cc2c1CN(CC1COCCO1)CC2 (stereo partly shown) [Compound 91]", "unit.abbrev": "µg/mL", "solubility at 24 h": 120}
{"compound": "Cc1cccc(-c2csc(N3CC[C@@]4(C(=O)O)C[C@H]4C3)n2)c1OCc1ccc2c(c1C)CCN(CC1COCCO1)C2 (stereo partly shown) [Compound 86]", "unit.abbrev": "µg/mL", "solubility at 24 h": 120}
{"compound": "Cc1cccc(-c2cccc(N3C[C@@H]4C[C@]4(C(=O)O)C3)n2)c1OCc1ccc2c(c1C)CCN(C1CCOCC1)C2 [Compound 21]", "unit.abbrev": "µg/mL", "solubility at 24 h": 120}
{"compound": "COc1cc(COc2c(C)cccc2-c2csc(N3CC[C@@H](C(=O)O)[C@@H](OC)C3)n2)c(F)c2c1CN(C1CCOCC1)CC2 [Compound 252]", "unit.abbrev": "µg/mL", "solubility at 24 h": 133}
{"compound": "Cc1cccc(-c2cccc(N3C[C@@H]4C[C@]4(C(=O)O)C3)n2)c1OCc1ccc2c(c1)CCN(C1CCOCC1)C2 [Compound 20]", "unit.abbrev": "µg/mL", "solubility at 24 h": 110}
{"compound": "CCO[C@@H]1CN(c2nc(-c3cccc(C)c3OCc3cc(OC)c4c(c3F)CCN(C3CCOCC3)C4)cs2)CC[C@@H]1C(=O)O [Compound 270]", "unit.abbrev": "µg/mL", "solubility at 24 h": 114}
{"compound": "CO[C@@H]1CN(c2nc(-c3cccc(C)c3OCc3ccc4c(c3C)CCN(C3CCOCC3)C4)cs2)CC[C@@H]1C(=O)O [Compound 173]", "unit.abbrev": "µg/mL", "solubility at 24 h": 120}
{"compound": "CO[C@H]1CN(c2cccc(-c3cccc(C)c3OCc3cc(F)c4c(c3)CCN(C3COC3)CC4)n2)CC[C@H]1C(=O)O [Compound 274]", "unit.abbrev": "µg/mL", "solubility at 24 h": 114}
{"compound": "CCO[C@@H]1CN(c2nccc(-c3cccc(C)c3OCc3ccc4c(c3C)CCN(C3CCOCC3)CC4)n2)CC[C@@H]1C(=O)O [Compound 276]", "unit.abbrev": "µg/mL", "solubility at 24 h": 126}
{"compound": "Cc1ccc(OCc2cc(C)c3c(c2C)CCN(C2COC2)C3)c(-c2cccc(N3C[C@@H]4C[C@]4(C(=O)O)C3)n2)c1 [Compound 40]", "unit.abbrev": "µg/mL", "solubility at 24 h": 98}
{"compound": "Cc1cc(C)c(OCc2ccc3c(c2)CCN(C2CCOCC2)C3)c(-c2csc(N3C[C@@H]4C[C@]4(C(=O)O)C3)n2)c1 [Compound 151]", "unit.abbrev": "µg/mL", "solubility at 24 h": 110}
{"compound": "Cc1ccc(OCc2ccc3c(c2C)CCN(C2CCCOC2)C3)c(-c2csc(N3CC[C@@]4(C(=O)O)C[C@H]4C3)n2)c1 (stereo partly shown) [Compound 118]", "unit.abbrev": "µg/mL", "solubility at 24 h": 120}
{"compound": "CO[C@H]1CN(c2nc(-c3cccc(Cl)c3OCc3ccc4c(c3)[C@@H](C)CN(C3COC3)CC4)cs2)CC[C@H]1C(=O)O [Compound 321]", "unit.abbrev": "µg/mL", "solubility at 24 h": 112}
{"compound": "CO[C@@H]1CN(c2nc(-c3cccc(Cl)c3OCc3ccc4c(c3C)CCN(C3CCOCC3)C4)cs2)CC[C@@H]1C(=O)O [Compound 208]", "unit.abbrev": "µg/mL", "solubility at 24 h": 139}
{"compound": "COC[C@H]1N(c2nc(-c3cccc(C)c3OCc3ccc4c(c3C)CCN(C3CCOCC3)C4)cs2)C[C@@H]2C[C@@]21C(=O)O [Compound 159]", "unit.abbrev": "µg/mL", "solubility at 24 h": 120}
{"compound": "COC[C@H]1N(c2cccc(-c3cccc(C)c3OCc3cc(C)c4c(c3)CCN(C3CCOCC3)C4)n2)C[C@@H]2C[C@@]21C(=O)O [Compound 48]", "unit.abbrev": "µg/mL", "solubility at 24 h": 110}
{"compound": "CO[C@H]1CN(c2nc(-c3cc(C)ccc3OCc3cc(C)c4c(c3F)CCN(C3CCOCC3)C4)cs2)CC[C@H]1C(=O)O [Compound 253]", "unit.abbrev": "µg/mL", "solubility at 24 h": 127}
{"compound": "CCO[C@@H]1CN(c2cccc(-c3cc(C)ccc3OCc3ccc4c(c3C)CCN(C3CCOCC3)CC4)n2)CC[C@@H]1C(=O)O [Compound 240]", "unit.abbrev": "µg/mL", "solubility at 24 h": 123}
{"compound": "COC[C@H]1N(c2cccc(-c3cccc(C)c3OCc3ccc4c(c3F)CCN(C3CCOC3)CC4)n2)C[C@@H]2C[C@@]21C(=O)O (stereo partly shown) [Compound 268]", "unit.abbrev": "µg/mL", "solubility at 24 h": 119}
{"compound": "COc1cc(COc2c(C)cccc2-c2csc(N3CC[C@H](C(=O)O)[C@H](OC)C3)n2)cc2c1CN(C1CCOCC1)CC2 [Compound 177]", "unit.abbrev": "µg/mL", "solubility at 24 h": 140}
{"compound": "Cc1cc(COc2c(C)cccc2-c2csc(N3CC[C@@]4(C(=O)O)C[C@H]4C3)n2)cc2c1CN(C1CCOC1)CC2 (stereo partly shown) [Compound 95]", "unit.abbrev": "µg/mL", "solubility at 24 h": 120}
